- Subject Of Test: GLP-1 receptor (GLP-1R) (human, UniProt P43220 24-463)
- Protocol Description: cell-based or functional assay
Starred links: 1 amine or outer side, 2 acyl side, 3 side chain; linkers in the order of their positions; H or OH if unused. Non-standard residues stand in square brackets, D forms with d. Groups on a side chain read outwards from the residue. Primed or numbered codes have the meaning given here. No end group written: not given here. *: point of attachment. γGlu = O=C(O)[C@H](CCC(=O)[*:2])N[*:1]; Stearoyl = CCCCCCCCCCCCCCCCCC(=O)*; αMeF = C[C@](N)(Cc1ccccc1)C(=O)O; αMeK = C[C@](N)(CCCCN)C(=O)O; αMeS = C[C@](N)(CO)C(=O)O; PEG2′ = not defined here; Aib = CC(C)(N)C(=O)O
Assay Endpoint: cAMP Primary assay EC50 GLP-1R n1 (pM)

{"Binder": "H[Aib]EGS[αMeF]TSDV[αMeS]S[αMeF]K([PEG2′-PEG2′-γGlu-Stearoyl])EGEAA[αMeK]E[αMeF]IA[αMeF]VV[αMeK]GG-NH2 [SEQ ID NO 115]", "cAMP Primary assay EC50 GLP-1R n1 / pM": 6}
{"Binder": "H[Aib]EGS[αMeF]TSDV[αMeS]S[αMeF]LEGEAA[αMeK]E[αMeF]IAK([PEG2′-PEG2′-γGlu-Stearoyl])VV[αMeK]GG-NH2 [SEQ ID NO 104]", "cAMP Primary assay EC50 GLP-1R n1 / pM": 5.9}
{"Binder": "H[Aib]EGS[αMeF]TSDV[αMeS]S[αMeF]LEGK([PEG2′-PEG2′-γGlu-Stearoyl])AA[αMeK]E[αMeF]IA[αMeF]VV[αMeK]GG-NH2 [SEQ ID NO 112]", "cAMP Primary assay EC50 GLP-1R n1 / pM": 6.1}
